Assay: in vitro
Details: human, hela cells, % viability
experimentalReadout: viability at 28.5 h, 10 µM (%)

INSERT INTO results (compound, experimentalreadout, unitssymbol, measurement) VALUES
  ('CCCCNCC(=O)Nc1sc2c(c1C(=O)O)CCCC2 [CBK287207]', 'viability at 28.5 h, 10 µM', '%', 83.7),
  ('O=C(O)CNS(=O)(=O)c1cc(Cl)sc1Cl [CBK034452]', 'viability at 28.5 h, 10 µM', '%', 91.4),
  ('CCc1n[nH]c(C(=O)N/N=C/c2cccnc2)c1C [CBK263386]', 'viability at 28.5 h, 10 µM', '%', 90.4),
  ('COc1cccc(/C=N/NC(=O)CCN2CCN(C)CC2)c1O [CBK261499]', 'viability at 28.5 h, 10 µM', '%', 91.3),
  ('Cc1cc(NC(=O)c2ccc3c(c2)C(=O)N(CC2CCCO2)C3=O)no1 (stereo not shown) [CBK072998]', 'viability at 28.5 h, 10 µM', '%', 90.2),
  ('Cc1nc2c(c(N(C)C)n1)CCN(C(=O)c1cnn(C(C)C)c1)C2 [CBK307083]', 'viability at 28.5 h, 10 µM', '%', 109),
  ('CC(C)(C)NCC(O)CO/N=C(/c1ccncc1)c1ccc(Br)cc1 (stereo not shown) [CBK023914G]', 'viability at 28.5 h, 10 µM', '%', 95.7),
  ('Cc1ccc(NS(=O)(=O)c2cc(C(=O)Nc3cccc(N(C)S(C)(=O)=O)c3)ccc2C)c(C)c1 [CBK268220]', 'viability at 28.5 h, 10 µM', '%', 92.7),
  ('CN1CCC2(CC1)CC(NC(=O)c1ccco1)c1ccccc1O2 (stereo not shown) [CBK283804]', 'viability at 28.5 h, 10 µM', '%', 96.6),
  ('Cc1cc(=O)n2ccc(CN3CCOCC3)c(O)c2n1 [CBK262899C]', 'viability at 28.5 h, 10 µM', '%', 114),
  ('Clc1ccc(-c2cc(CN3CCCCC3)no2)cc1Cl [CBK018435]', 'viability at 28.5 h, 10 µM', '%', 102),
  ('Nc1nc(Cl)c2ccn([C@H]3C[C@@H](O)[C@@H](CO)O3)c2n1 [CBK201309]', 'viability at 28.5 h, 10 µM', '%', 92.4),
  ('CC(=O)NCCc1c(C(=O)O)[nH]c2ccc(OCc3ccccc3)cc12 [CBK260945]', 'viability at 28.5 h, 10 µM', '%', 87.8),
  ('Cc1cc(CN2CCN(c3nc(-c4ccccc4)nc4ccccc34)CC2)no1 [CBK296654]', 'viability at 28.5 h, 10 µM', '%', 87.7),
  ('O=C1NCCc2c1[nH]c1ccc(Cl)cc21 [CBK015755]', 'viability at 28.5 h, 10 µM', '%', 38.9),
  ('Cc1cccc(-c2noc([C@@H]3Cc4[nH]cnc4CN3C(=O)CC(C)(C)CC(=O)O)n2)c1 [CBK288961]', 'viability at 28.5 h, 10 µM', '%', 95.8),
  ('Cc1c(C(=O)Nc2ccc(Cl)cc2)sc2c1C(c1cccnc1)CC(=O)N2 (stereo not shown) [CBK288233]', 'viability at 28.5 h, 10 µM', '%', 87.1),
  ('COc1cccc(-c2nc(SCC(=O)Nc3ccc([N+](=O)[O-])cc3)[nH]c(=O)c2C#N)c1 [CBK264912]', 'viability at 28.5 h, 10 µM', '%', 105),
  ('CCOc1c(CNCCN2CCOCC2)cccc1OC [CBK278182C]', 'viability at 28.5 h, 10 µM', '%', 103);
